All figures here come from patent US10201556B2.

# Test system: RPMI-7951 melanoma cell line
# procedure_details: Anti-proliferative effect of miRNA mimics, MTS assay
# Assay type: cell-based
# conditions_used: 10 nM mimic, 72 hours after transfection
Entries annotated with measured RPMI-7951 % Viability 10 nM
property_measured: RPMI-7951 % Viability 10 nM (%)

• hsa-miR-129-5p: mature miRNA mimic, SEQ ID NO 4 CUUUUUGCGGUCUGGGCUUGC (listed as RNA, chemistry not given here) = 82
• hsa-miR-3157-5p: mature miRNA mimic, SEQ ID NO 6 UUCAGCCAGGCUAGUGCAGUCU (listed as RNA, chemistry not given here) = 26
• hsa-miR-518b: mature miRNA mimic, SEQ ID NO 5 CAAAGCGCUCCCCUUUAGAGGU (listed as RNA, chemistry not given here) = 53
• hsa-miR-200c-5p: mature miRNA mimic, SEQ ID NO 9 CGUCUUACCCAGCAGUGUUUGG (listed as RNA, chemistry not given here) = 58
• hsa-miR-182-3p: mature miRNA mimic, SEQ ID NO 10 UGGUUCUAGACUUGCCAACUA (listed as RNA, chemistry not given here) = 68
• hsa-miR-497-5p: mature miRNA mimic, SEQ ID NO 8 CAGCAGCACACUGUGGUUUGU (listed as RNA, chemistry not given here) = 68
• hsa-miR-96-5p: mature miRNA mimic, SEQ ID NO 3 UUUGGCACUAGCACAUUUUUGCU (listed as RNA, chemistry not given here) = 53
